- TEST_SYSTEM: desmolase (Bos taurus)
- Construct: The mitochondrial fraction of bovine adrenal cortex provided the source of desmolase; from tissue; host or cells: bovine adrenal cortex, mitochondrial fraction
- ASSAY_NOTES: Desmolase inhibition, (26-^14C)-cholesterol as substrate (7 micromolar), mitochondrial fraction of bovine adrenal cortex
- Type: biochemical
ATTRIBUTE_MEASURED: IC50

Ask: Entry CCC1(c2ccncc2)CCC(=O)N(CCC(F)(F)C(F)(F)C(F)(F)F)C1=O (stereo not drawn) : reported IC50 = ?
Reply: 240 µM

Ask: Name the reported IC50 value associated with the molecule O=C1CCC(CCC(F)(F)C(F)(F)C(F)(F)C(F)(F)C(F)(F)C(F)(F)F)(c2ccncc2)C(=O)N1 (stereo not drawn) [R1=(CH2)2 (CF2)5 CF3, R2=H, reference compound]
Reply: 93 µM

Ask: Which measured IC50 value corresponds to CCC1(c2ccncc2)CCC(=O)N(CCC(F)(F)C(F)(F)C(F)(F)C(F)(F)C(F)(F)C(F)(F)F)C1=O (stereo not drawn) ?
Reply: 145 µM

Ask: Returns the measured IC50 for the input molecule. Input: O=C1CCC(CCC(F)(F)C(F)(F)C(F)(F)C(F)(F)C(F)(F)C(F)(F)C(F)(F)C(F)(F)F)(c2ccncc2)C(=O)N1 (stereo not drawn) [R1=(CH2)2 (CF2)7 CF3, R2=H, reference compound]
Reply: 79 µM

Ask: Entry CCC1(c2ccncc2)CCC(=O)N(CCC(F)(F)C(F)(F)C(F)(F)C(F)(F)C(F)(F)C(F)(F)C(F)(F)C(F)(F)F)C1=O (stereo not drawn) : reported IC50 = ?
Reply: 150 µM

Ask: Using the record for CCC1(c2ccncc2)CCC(=O)N(CCC(F)(F)C(F)(F)C(F)(F)C(F)(F)F)C1=O (stereo not drawn) , report its IC50.
Reply: 120 µM

----------
- TEST_SYSTEM: desmolase (Bos taurus, UniProt P00189)
- Construct: The mitochondrial fraction of bovine adrenal cortex provided the source of desmolase; from tissue; host or cells: bovine adrenal cortex, mitochondrial fraction
- Sequence (P00189 40-520): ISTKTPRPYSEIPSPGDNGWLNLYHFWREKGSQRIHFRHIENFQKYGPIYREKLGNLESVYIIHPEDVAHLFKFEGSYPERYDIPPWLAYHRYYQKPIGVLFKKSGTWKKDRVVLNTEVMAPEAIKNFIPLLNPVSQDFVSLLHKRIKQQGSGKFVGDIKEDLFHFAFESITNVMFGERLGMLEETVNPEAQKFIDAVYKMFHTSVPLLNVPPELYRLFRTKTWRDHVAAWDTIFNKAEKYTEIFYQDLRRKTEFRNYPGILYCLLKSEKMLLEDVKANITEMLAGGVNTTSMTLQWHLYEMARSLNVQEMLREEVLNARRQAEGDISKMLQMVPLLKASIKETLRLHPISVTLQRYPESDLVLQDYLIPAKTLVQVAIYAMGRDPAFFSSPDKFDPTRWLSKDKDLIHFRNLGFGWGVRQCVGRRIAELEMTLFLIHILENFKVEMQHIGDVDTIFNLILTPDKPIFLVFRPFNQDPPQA
- ASSAY_NOTES: Desmolase inhibition, (26-^14C)-cholesterol as substrate (7 micromolar), mitochondrial fraction of bovine adrenal cortex
- Format: biochemical
- STUDY_CONDITIONS: 7 micromolar (^14C) cholesterol; 30° C.; "None" = no inhibition
ATTRIBUTE_MEASURED: IC50 Desmolase

Check out these entries, answers already filled in.
CCCCCCCCC1(c2ccncc2)CCC(=O)NC1=O (centres unmarked) [R1=n-C8 H17, R2=H]	none
CCCCCCN1C(=O)CCC(CC)(c2ccncc2)C1=O (centres unmarked) [R1=C2 H5, R2=n-C6 H13]	none
CCCN1C(=O)CCC(CC)(c2ccncc2)C1=O (centres unmarked) [R1=C2 H5, R2=n-C3 H7]	none
O=C1CCC(CCC(F)(F)C(F)(F)C(F)(F)C(F)(F)F)(c2ccncc2)C(=O)N1 (centres unmarked) [R1=(CH2)2 (CF2)3 CF3, R2=H, reference compound]	none
CCC1(c2ccncc2)CCC(=O)N(CC2CCCCC2)C1=O (centres unmarked) [R1=C2 H5, R2=[drawing 7]]	none

Ask: Which IC50 Desmolase value belongs to CCCC1(c2ccncc2)CCC(=O)NC1=O (centres unmarked) [R1=n-C3 H7, R2=H] ?
Reply: none

Ask: Record request: IC50 Desmolase value, item CCCCN1C(=O)CCC(CC)(c2ccncc2)C1=O (centres unmarked) [R1=C2 H5, R2=n-C4 H9]
Reply: none

Ask: I'd like to know its IC50 Desmolase. The compound in question is CN1C(=O)CCC(C)(c2ccncc2)C1=O (centres unmarked) [R1=CH3, R2=CH3, reference compound]
Reply: none

# credit: patent US4668689A
